assayed.system: recombinant human PAD4 (human, UniProt Q9UM07 1-663)
Sequence (Q9UM07 whole entry): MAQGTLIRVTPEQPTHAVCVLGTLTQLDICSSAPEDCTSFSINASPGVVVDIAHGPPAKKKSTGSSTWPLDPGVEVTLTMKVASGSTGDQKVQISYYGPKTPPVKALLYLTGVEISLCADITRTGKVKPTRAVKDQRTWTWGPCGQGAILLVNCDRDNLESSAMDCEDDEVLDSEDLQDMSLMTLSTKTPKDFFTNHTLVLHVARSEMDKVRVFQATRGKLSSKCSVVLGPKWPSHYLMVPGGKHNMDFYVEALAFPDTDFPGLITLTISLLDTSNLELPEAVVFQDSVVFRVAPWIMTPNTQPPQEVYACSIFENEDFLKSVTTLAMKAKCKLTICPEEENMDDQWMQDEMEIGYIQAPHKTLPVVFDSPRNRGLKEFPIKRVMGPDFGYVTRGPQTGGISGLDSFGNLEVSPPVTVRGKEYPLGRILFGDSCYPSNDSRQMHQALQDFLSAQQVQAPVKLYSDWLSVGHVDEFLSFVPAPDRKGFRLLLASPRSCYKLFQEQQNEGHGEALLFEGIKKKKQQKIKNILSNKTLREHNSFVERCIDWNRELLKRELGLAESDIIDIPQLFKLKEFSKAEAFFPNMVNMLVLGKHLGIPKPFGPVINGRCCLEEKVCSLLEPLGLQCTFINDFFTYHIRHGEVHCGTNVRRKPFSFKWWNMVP
measurement.protocol: cell-based or functional assay
property: IC50 (average), PAD4 citrullination of peptide …, RapidFire MS

binder | observed.measurement
hz20-8 (antibody, V domains shown, light constant region not tied to this antibody) VH: QVQLVQSGAEVKKPGASVKVSCKASGYTFTNYGISWVRQAPGQGLEWMGEIYPRSGNTYHNEKFKDRVTMTTDTSTSTAYMELRSLRSDDTAVYYCARSMITTRYWYFDVWGKGTTVTVSS VL: DIVMTQSPDSLAVSLGERATINCRASESVDTYGNSFMHWYQQKPGQPPKLLIYLASNLESGVPDRFSGSGSGTDFTLTIDSLQAEDVAVYYCQQNNEDPLTFGQGTKLEIK | 71.9 nM
hz20-4 (antibody, V domains shown, light constant region not tied to this antibody) VH: QVQLVQSGAEVKKPGASVKVSCKASGYTFTNYGISWVRQAPGQGLEWMGEIYPRSGNTYHNEKFKDRVTMTADTSTSTVYMELSSLRSEDTAVYYCARSMITTRYWYFDVWGKGTTVTVSS VL: DIVMTQSPDSLAVSLGERATINCRASESVDTYGNSFMHWYQQKPGQPPKLLIYLASNLESGVPDRFSGSGSGTDFTLTISSLQAEDVAVYYCQQNNEDPLTFGAGTKLELK | 118 nM
hz20-7 (antibody, IgG1, V domains shown, also called clone 20-based hz20-7 antibody) VH: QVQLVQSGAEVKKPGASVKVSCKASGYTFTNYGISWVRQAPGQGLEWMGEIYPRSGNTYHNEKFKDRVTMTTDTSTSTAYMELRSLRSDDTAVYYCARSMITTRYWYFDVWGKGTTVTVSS VL: DIVMTQSPDSLAVSLGERATINCRASESVDTYGNSFMHWYQQKPGQPPKLLIYLASNLESGVPDRFSGSGSGTDFTLTISSLQAEDVAVYYCQQNNEDPLTFGQGTKLEIK | 64.7 nM
hz20-9 (antibody, V domains shown, light constant region not tied to this antibody) VH: QVQLVQSGAEVKKPGASVKVSCKASGYTFTNYGISWVRQAPGQGLEWMGEIYPRSGNTYHNEKFKDRVTMTTDKSTSTAYMELRSLRSDDTAVYYCARSMITTRYWYFDVWGKGTTVTVSS VL: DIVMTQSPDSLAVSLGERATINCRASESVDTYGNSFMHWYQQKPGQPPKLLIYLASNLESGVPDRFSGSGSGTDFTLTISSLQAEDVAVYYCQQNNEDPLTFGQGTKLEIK | 107 nM
hz13-4 (antibody, V domains shown, light constant region not tied to this antibody) VH: EVLLVQSGAEVKKPGASVKLSCTSSDFNIKDHFIHWVRQAPGKGLEWMGRIDPEDDETKYAPKFQDRVTMTADTSTDTAYMELSSLRSEDTAVFYCAGYGNYEGAMDYWGQGTLVTVSS VL: DIQMTQSPSSLSASVGDRVTITCRASENVNNYGIGFMNWYQQKPGKAPKLLIYAASRRGSGVPSRFSGSGSGTDFTLTISSLQPEDFATYYCQQSKEVPYTFGQGTKVEIK | 115 nM
hz20-1 (antibody, V domains shown, light constant region not tied to this antibody) VH: QVQLVQSGAEVKKPGASVKVSCKASGYTFTNYGISWVRQAPGQGLEWMGEIYPRSGNTYHNEKFKDRVTMTRDTSTSTVYMELSSLRSEDTAVYYCARSMITTRYWYFDVWGKGTTVTVSS VL: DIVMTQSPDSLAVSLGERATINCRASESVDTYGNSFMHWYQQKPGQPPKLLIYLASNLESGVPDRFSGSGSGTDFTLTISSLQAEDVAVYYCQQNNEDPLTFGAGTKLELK | 77 nM
hz13-7 (antibody, V domains shown, light constant region not tied to this antibody) VH: EVLLVQSGAEVKKPGASVKLSCTSSDFNIKDHFIHWVRQAPGKGLEWIGRIDPEDDETKYAPKFQDRVTITADTSTDTAYLELSSLRSEDTAVFYCAGYGNYEGAMDYWGQGTLVTVSS VL: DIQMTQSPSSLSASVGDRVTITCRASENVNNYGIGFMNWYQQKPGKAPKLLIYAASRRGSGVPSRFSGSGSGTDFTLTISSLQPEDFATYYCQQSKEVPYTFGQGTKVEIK | 170 nM
hz20-10 (antibody, V domains shown, light constant region not tied to this antibody) VH: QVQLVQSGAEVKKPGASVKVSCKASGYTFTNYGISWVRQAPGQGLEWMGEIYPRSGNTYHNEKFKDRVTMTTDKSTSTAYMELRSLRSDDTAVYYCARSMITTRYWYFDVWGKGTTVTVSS VL: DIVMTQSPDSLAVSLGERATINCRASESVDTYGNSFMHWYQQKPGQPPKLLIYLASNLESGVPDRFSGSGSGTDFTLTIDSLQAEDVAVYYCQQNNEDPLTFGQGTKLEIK | 57.4 nM
hz20-6 (antibody, V domains shown, light constant region not tied to this antibody) VH: QVQLVQSGAEVKKPGASVKLSCKATGYTFTNYGISWVRQAPGQGLEWIGEIYPRSGNTYHNEKFKDRVTLTADKSSSTAYMEFRSLRSDDTAVYFCARSMITTRYWYFDVWGQGTLVTVSS VL: DIQMTQSPSSLSASVGDRVTITCRASESVDTYGNSFMHWYQQKPGKAPKLLIYLASNLESGVPSRFSGSGSGTDFTLTISSLQPEDFATYYCQQNNEDPLTFGQGTKVEIK | 64 nM
hz20-14 (antibody, V domains shown, light constant region not tied to this antibody) VH: QVQLVQSGAEVKKPGASVKVSCKASGYTFTNYGISWVRQRPGQGLEWMGEIYPRSGNTYHNEKFKDRVTMTTDKSTSTAYMELRSLRSEDTAVYYCARSMITTRYWYFDVWGKGTTVTVSS VL: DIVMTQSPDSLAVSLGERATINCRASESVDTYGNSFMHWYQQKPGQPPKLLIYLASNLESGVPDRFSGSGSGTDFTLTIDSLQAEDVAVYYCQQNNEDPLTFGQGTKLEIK | 56.9 nM
